Recorded values, source ChEMBL document CHEMBL5058564.

Measured Growth Rate, listed per entry for reference.
Tested on: Fibroblast
assay_text: Incucyte cell viability with human fibroblast; also: unitless GR value; below 1 slowed growth and below 0 cell loss
Type: toxicity, cell-based
experimental_context: 24 h, 10 µM, compound concentration 10 uM, replicate number 1, timepoint 24 hours
measurement_type: Growth Rate

# compound, measurement_type, number
rows = [
    ("CC(C)COc1ccc(CNC(=O)N(Cc2ccc(F)cc2)C2CCN(C)CC2)cc1", "Growth Rate", 0.27),
    ("Nc1cnc(N2CCc3cc(S(=O)(=O)Nc4c(F)cc(Cl)cc4F)cc(N4CCCC4=O)c32)nc1 [TP-020n]", "Growth Rate", 0.92),
    ("C[C@H]1[C@H](OC(=O)CCC(=O)O)O[C@@H]2O[C@@]3(C)CC[C@H]4[C@H](C)CC[C@@H]1[C@@]24OO3 [ARTESUNATE]", "Growth Rate", -0.42),
    ("c1cc(OCCCN2CCCCC2)ccc1CN1CCCCC1", "Growth Rate", 0.68),
    ("CCCCNNC(=O)c1ccc(Br)cc1", "Growth Rate", 0.99),
    ("Fc1cccc(/C=N/N=C/c2cccc(F)c2)c1", "Growth Rate", 0.91),
    ("CSc1nc(NC2CCCC2)c([N+](=O)[O-])c(NC2CCCC2)n1", "Growth Rate", 0.19),
    ("Cc1cc(-c2ccc3c(c2)CC[C@H]3N2CC3(CCN(C(=O)Cc4cn5cc(C)sc5n4)CC3)C2)ncn1", "Growth Rate", 0.57),
    ("COc1cc(/C=C/C(=O)NCCn2c(C)cc3ccccc32)cc(OC)c1OC", "Growth Rate", 0.67),
    ("CSCC[C@H](NC(=O)[C@H](CC(C)C)NC(=O)CNC(=O)[C@H](Cc1ccccc1)N(C)C(=O)[C@H](Cc1ccccc1)NC(=O)[C@H](CC(=O)O)NC(=O)CCC(=O)O)C(N)=O [SENKTIDE]", "Growth Rate", 0.9),
    ("N=C(N)NCCC[C@H](NC(=O)COCC(c1ccccc1)c1ccccc1)C(=O)O.O=C(O)C(F)(F)F", "Growth Rate", 0.79),
    ("CO[C@H]1CNC[C@@H](OCC2CCC(F)(F)CC2)[C@@H]1Nc1ncc(-c2cncc(C)c2)c2cc(C)c(=O)[nH]c12", "Growth Rate", 0.1),
    ("CCOC(=O)N[C@@H]1CC[C@@H]2[C@@H](C1)C[C@H]1C(=O)O[C@H](C)[C@H]1[C@H]2/C=C/c1ccc(-c2cccc(F)c2)cn1", "Growth Rate", 0.18),
    ("CN(CCN1CCC(OC(=O)Nc2ccccc2-c2ccccc2)CC1)C(=O)c1ccc(CN2CCC(C(N)=O)CC2)cc1", "Growth Rate", 0.56),
    ("N[C@](CC1c2ccccc2Oc2ccccc21)(C(=O)O)[C@H]1C[C@@H]1C(=O)O", "Growth Rate", 0.68),
    ("O=c1ccn([C@@H]2O[C@H](COP(=O)([O-])OP(=O)([O-])OP(=O)([O-])O)[C@@H](O)[C@H]2O)c(=O)[nH]1.[Na+].[Na+].[Na+]", "Growth Rate", 0.13),
]

###

System: HEK-293T
assay_text: Incucyte cell viability with HEK293T; also: unitless GR value; below 1 slowed growth and below 0 cell loss
Type: toxicity, cell-based
experimental_context: human, 12 h, 10 µM, compound concentration 10 uM, replicate number 2, timepoint 12 hours
Lab note: compare Growth Rate with 0.7, writing condition met if less and condition not met if equal or more.

# compound, group
measured = [
    ("COC1(C[S@@+]([O-])c2ccccc2)CCN(CCc2c[nH]c3ccc(F)cc23)CC1", "condition not met"),
    ("O=C(NCCNCC(O)COc1ccc(O)cc1)N1CCOCC1.O=C(NCCNCC(O)COc1ccc(O)cc1)N1CCOCC1.O=C(O)/C=C/C(=O)O (stereo not drawn) [XAMOTEROL FUMARATE]", "condition not met"),
    ("CC(C)(C)c1ccc(S(=O)(=O)Nc2ccc(Cl)cc2C(=O)c2cc[n+]([O-])cc2)cc1", "condition not met"),
    ("NC(=O)c1cc2c(-c3ccc(C(=O)NCc4ccnc(Cl)c4)s3)cccc2s1", "condition met"),
]
